All values here come from patent US20240317777A1.

Below is a list of entries, each paired with its recorded IC50 value.
# Target: CDK6-CYCLIN D3 (Homo sapiens, UniProt Q00534)
# Sequence (Q00534 whole entry): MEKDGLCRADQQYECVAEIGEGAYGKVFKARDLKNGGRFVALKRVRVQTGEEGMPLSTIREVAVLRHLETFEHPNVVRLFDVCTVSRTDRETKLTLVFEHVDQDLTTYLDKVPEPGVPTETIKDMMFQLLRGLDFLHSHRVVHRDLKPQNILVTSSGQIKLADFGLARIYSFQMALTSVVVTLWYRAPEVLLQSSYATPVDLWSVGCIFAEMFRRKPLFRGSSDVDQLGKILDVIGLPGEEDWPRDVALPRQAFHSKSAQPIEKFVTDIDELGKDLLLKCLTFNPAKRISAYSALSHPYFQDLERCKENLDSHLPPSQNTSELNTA
# Sequence (P30281 whole entry partner): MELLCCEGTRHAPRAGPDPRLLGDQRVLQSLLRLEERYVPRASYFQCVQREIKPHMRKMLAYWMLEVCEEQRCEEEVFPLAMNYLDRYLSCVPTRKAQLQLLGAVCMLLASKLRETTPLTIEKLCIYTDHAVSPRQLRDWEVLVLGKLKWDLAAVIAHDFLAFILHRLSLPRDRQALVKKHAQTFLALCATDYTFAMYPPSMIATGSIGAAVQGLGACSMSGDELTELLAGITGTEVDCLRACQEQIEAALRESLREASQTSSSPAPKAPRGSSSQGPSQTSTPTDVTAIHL
# Protocol summary: CDK protein kinase inhibition by ADP-Glo assay, CDK6-CYCLIN D3
# Type: biochemical
# Experimental setup: ADP-Glo, 1000 μM ATP; Table 27; read-out: CDK6-CYCLIND3, IC50

IN: Identify the measured IC50 of [2H]C1([2H])Oc2cc(ccn2)Nc2cc(n[nH]2)[C@H]2CC[C@H](C2)OC(=O)N[C@H]2C[C@H]1C2 for CDK6-CYCLIN D3 (Homo sapiens, UniProt Q00534).
OUT: 0.1 to 0.5 µM

Now for a further compound.
IN: Notebook: pull reported IC50 for CDK6-CYCLIN D3 (Homo sapiens, UniProt Q00534), entry [2H]C1([2H])CC[C@H](C)NC(=O)O[C@@H]2CC[C@@H](C2)c2cc([nH]n2)Nc2ccnc(c2)O1
OUT: > 0.5 µM

----------
# Target: CDK9-CYCLIN T1 (Homo sapiens, UniProt P50750)
# Sequence (P50750 whole entry): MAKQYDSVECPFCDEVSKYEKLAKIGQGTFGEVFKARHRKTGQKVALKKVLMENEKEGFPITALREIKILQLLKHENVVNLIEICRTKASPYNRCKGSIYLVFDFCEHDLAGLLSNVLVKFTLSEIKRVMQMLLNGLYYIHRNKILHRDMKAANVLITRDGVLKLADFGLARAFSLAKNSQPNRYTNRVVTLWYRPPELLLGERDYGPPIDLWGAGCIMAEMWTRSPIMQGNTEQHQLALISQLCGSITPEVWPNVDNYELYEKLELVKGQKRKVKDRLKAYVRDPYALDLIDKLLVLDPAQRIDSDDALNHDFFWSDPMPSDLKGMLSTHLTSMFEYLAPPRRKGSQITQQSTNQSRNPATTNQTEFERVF
# Sequence (O60563 whole entry partner): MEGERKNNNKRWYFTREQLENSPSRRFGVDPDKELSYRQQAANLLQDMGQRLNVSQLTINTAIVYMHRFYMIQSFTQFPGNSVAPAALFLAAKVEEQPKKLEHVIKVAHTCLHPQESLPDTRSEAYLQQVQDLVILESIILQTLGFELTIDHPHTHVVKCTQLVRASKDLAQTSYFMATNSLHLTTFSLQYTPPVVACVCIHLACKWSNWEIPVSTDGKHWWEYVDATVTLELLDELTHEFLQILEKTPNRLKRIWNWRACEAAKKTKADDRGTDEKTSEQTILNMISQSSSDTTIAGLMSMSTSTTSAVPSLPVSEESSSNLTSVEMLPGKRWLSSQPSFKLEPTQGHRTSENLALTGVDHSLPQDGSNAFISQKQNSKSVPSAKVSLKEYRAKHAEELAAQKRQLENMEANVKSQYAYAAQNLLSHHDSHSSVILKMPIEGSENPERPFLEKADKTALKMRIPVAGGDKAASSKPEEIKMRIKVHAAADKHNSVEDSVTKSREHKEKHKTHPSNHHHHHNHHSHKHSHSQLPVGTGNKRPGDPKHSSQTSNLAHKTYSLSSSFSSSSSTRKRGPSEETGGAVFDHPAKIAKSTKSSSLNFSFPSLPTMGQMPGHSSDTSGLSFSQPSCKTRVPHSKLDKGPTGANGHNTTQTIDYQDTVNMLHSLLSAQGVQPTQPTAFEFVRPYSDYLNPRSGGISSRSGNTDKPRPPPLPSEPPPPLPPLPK
# Protocol summary: CDK protein kinase inhibition by ADP-Glo assay, CDK9-CYCLIN T1
# Format: biochemical
# Experimental setup: ADP-Glo, 1000 μM ATP; Table 19; read-out: CDK9-CYCLINT1, IC50
pIC50: −log10 of the molar value.
Each entry below carries its recorded pIC50.

IN: For the compound O=C1N[C@H]2C[C@H](CCc3cc(ccn3)Nc3cc(n[nH]3)[C@H]3CC[C@H](C3)O1)C2 , what pIC50 is on record?
OUT: 7.30 to 8.00

----------
Catalogue of pIC50 values
# Target: CDK1-CYCLIN B (Homo sapiens, UniProt P06493)
# Sequence (P06493 whole entry): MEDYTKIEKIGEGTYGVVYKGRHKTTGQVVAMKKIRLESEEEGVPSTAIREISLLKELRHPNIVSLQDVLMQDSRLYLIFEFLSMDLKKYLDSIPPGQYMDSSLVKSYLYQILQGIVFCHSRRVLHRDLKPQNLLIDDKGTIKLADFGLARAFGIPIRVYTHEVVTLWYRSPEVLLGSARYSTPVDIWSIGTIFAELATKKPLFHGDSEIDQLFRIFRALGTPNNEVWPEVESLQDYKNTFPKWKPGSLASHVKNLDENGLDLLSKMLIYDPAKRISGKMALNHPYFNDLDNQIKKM
# Sequence (P14635 whole entry partner): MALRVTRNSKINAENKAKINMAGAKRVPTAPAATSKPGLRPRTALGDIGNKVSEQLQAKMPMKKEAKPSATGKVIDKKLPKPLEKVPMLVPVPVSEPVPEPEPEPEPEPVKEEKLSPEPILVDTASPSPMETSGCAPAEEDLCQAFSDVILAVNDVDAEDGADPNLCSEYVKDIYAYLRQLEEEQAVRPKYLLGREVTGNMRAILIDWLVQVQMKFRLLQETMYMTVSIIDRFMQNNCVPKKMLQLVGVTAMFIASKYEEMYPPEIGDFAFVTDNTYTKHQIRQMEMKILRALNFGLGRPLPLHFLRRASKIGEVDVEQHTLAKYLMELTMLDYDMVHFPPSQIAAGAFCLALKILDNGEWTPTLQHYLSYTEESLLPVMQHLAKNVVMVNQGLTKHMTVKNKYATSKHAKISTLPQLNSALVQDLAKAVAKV
# Protocol summary: CDK protein kinase inhibition by ADP-Glo assay, CDK1-CYCLIN B
# Assay type: biochemical
# Experimental setup: ADP-Glo, 1000 μM ATP; Table 25; read-out: CDK1-CYCLINB, IC50
pIC50: −log10 of the molar value.

IN: Recorded pIC50 of O=C1NC2CC(/C=C/c3cc(ccn3)Nc3cc(n[nH]3)[C@H]3CC[C@H](C3)O1)C2 , please.
OUT: ≥ 8.00

Continuing:
IN: I am curious: what pIC50 value has been reported for C[C@H]1CCCNC(=O)O[C@@H]2CC[C@@H](C2)c2cc([nH]n2)Nc2cnnc(c2)O1 ?
OUT: 7.30 to 8.00

IN: Quick one: C[C@H]1CCCC(F)(F)c2cc(ccn2)Nc2cc(n[nH]2)[C@H]2CC[C@H](C2)OC(=O)N1
OUT: 7.30 to 8.00

----------
# Target: CDK4-CYCLIN D1 (Homo sapiens)
# Sequence (P11802 whole entry): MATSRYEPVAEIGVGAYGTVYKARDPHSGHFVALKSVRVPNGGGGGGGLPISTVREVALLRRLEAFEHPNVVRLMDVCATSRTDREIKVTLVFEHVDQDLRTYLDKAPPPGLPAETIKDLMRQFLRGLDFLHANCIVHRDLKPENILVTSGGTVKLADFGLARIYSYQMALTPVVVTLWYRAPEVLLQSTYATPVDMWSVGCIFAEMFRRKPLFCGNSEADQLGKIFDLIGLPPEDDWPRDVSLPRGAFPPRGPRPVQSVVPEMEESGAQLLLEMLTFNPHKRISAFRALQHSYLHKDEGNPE
# Sequence (P24385 whole entry partner): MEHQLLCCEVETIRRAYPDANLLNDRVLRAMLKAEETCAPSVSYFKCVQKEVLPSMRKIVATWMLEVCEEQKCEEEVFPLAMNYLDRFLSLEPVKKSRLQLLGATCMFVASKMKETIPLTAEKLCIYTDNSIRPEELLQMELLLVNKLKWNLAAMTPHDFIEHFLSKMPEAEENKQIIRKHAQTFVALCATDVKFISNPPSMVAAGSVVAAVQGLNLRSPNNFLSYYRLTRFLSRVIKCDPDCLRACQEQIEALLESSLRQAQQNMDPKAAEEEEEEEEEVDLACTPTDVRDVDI
# Protocol summary: CDK protein kinase inhibition by ADP-Glo assay, CDK4-CYCLIN D1
# Type: biochemical
# Experimental setup: ADP-Glo, 1000 μM ATP; Table 11; read-out: CDK4-CYCLIND1, IC50
This listing pairs compounds with measured IC50.

# annotated cases, reported IC50 shown
IN: Look up IC50 with CDK4-CYCLIN D1 (Homo sapiens) for this compound: O=C1NC23CC(CCOc4cncc(c4)Nc4cc(n[nH]4)[C@H]4CC[C@H](C4)O1)(C2)C3 [Compound 117]
OUT: 10 to 50 nM

IN: What about O=C1N[C@H]2C[C@H](COc3cc(ccn3)Nc3cc(n[nH]3)[C@H]3CC[C@H](C3)O1)C2 [Compound 108] ?
OUT: 100 to 500 nM

IN: What do we get for C[C@H]1CCCNC(=O)O[C@@H]2CC[C@@H](C2)c2cc([nH]n2)Nc2ccnc(c2)O1 [compound 12] ?
OUT: 100 to 500 nM

Field: next compound
IN: Find IC50 (CDK4-CYCLIN D1 (Homo sapiens)) for the entry O=C1NC23CC(COc4cc(cc(C(F)F)n4)Nc4cc([nH]n4)[C@H]4CC[C@H](C4)O1)(C2)C3 [Compound 19]
OUT: > 500 nM

----------
Measured IC50 values are reported for all entries that follow.
# Target: CDK1-CYCLIN B (Homo sapiens, UniProt P06493)
# Protocol summary: CDK protein kinase inhibition by ADP-Glo assay, CDK1-CYCLIN B
# Format: biochemical
# Experimental setup: ADP-Glo, 1000 μM ATP; Table 21; read-out: CDK1-CYCLINB, IC50

IN: # IC50 lookup, item C[C@@H]1Oc2cncc(c2)Nc2cc(n[nH]2)[C@H]2CC[C@H](C2)OC(=O)N[C@H]2C[C@H]1C2
OUT: 10 to 50 nM

IN: Record: C[C@H]1CC[C@H](C)Oc2cncc(c2)Nc2cc(n[nH]2)[C@H]2CC[C@H](C2)OC(=O)N1
OUT: ≤ 10 nM

New cases:
IN: # lookup: IC50 of C[C@H]1Oc2cncc(c2)Nc2cc(n[nH]2)[C@H]2CC[C@H](C2)OC(=O)N[C@H]2C[C@H]1C2
OUT: 10 to 50 nM

IN: Continue with C[C@@H]1Oc2cc(ccn2)Nc2cc(n[nH]2)[C@H]2CC[C@H](C2)OC(=O)N[C@H]2C[C@H]1C2
OUT: 100 to 500 nM

IN: Request: C[C@H]1CCCNC(=O)O[C@@H]2CC[C@@H](C2)c2cc([nH]n2)Nc2cccc(c2)O1
OUT: 50 to 100 nM

IN: Would you mind doing C[C@H]1CC[C@H](C)Oc2cc(ccn2)Nc2cc(n[nH]2)[C@H]2CC[C@H](C2)OC(=O)N1 as well?
OUT: 10 to 50 nM

IN: Thanks! And C[C@H]1Oc2cc(ccn2)Nc2cc(n[nH]2)[C@H]2CC[C@H](C2)OC(=O)N[C@H]2C[C@H]1C2 ?
OUT: 100 to 500 nM

IN: C[C@@H]1CC[C@H](C)Oc2cncc(c2)Nc2cc(n[nH]2)[C@H]2CC[C@H](C2)OC(=O)N1 ?
OUT: 10 to 50 nM

IN: Now consider O=C1NCCCO[C@@H](C(F)(F)F)c2cc(ccn2)Nc2cc(n[nH]2)[C@H]2CC[C@H](C2)O1 and answer again.
OUT: ≤ 10 nM

----------
Listing of entries alongside the reported IC50.
# Target: UniProt P06493
# Protocol summary: CDK protein kinase inhibition by ADP-Glo assay, CDK1-CYCLIN B
# Format: biochemical
# Experimental setup: ADP-Glo, 1000 μM ATP; Table 19; read-out: CDK1-CYCLINB, IC50

Guide cases for IC50, answers given:
IN: Record request: IC50 value, item O=C1NCCCCC(F)(F)c2cc(ccn2)Nc2cc([nH]n2)[C@H]2CC[C@H](C2)O1 [Compound 64]
OUT: ≤ 0.01 µM

IN: Would you mind doing O=C1N[C@H]2C[C@H](CCc3cc(ccn3)Nc3cc(n[nH]3)[C@H]3CC[C@H](C3)O1)C2 [compound 140] as well?
OUT: 0.01 to 0.05 µM

Others:
IN: Consider the compound C[C@H]1CCCCc2cc(ccn2)Nc2cc(n[nH]2)[C@H]2CC[C@H](C2)OC(=O)N1 [Compound 114] and give its measured IC50.
OUT: 0.1 to 0.5 µM

IN: Could you do the same for C[C@@H]1CCCCc2cc(ccn2)Nc2cc(n[nH]2)[C@H]2CC[C@H](C2)OC(=O)N1 [Compound 115] , please?
OUT: 0.05 to 0.1 µM

IN: Then what about the compound C[C@@H]1CC/C=C/c2cc(ccn2)Nc2cc(n[nH]2)[C@H]2CC[C@H](C2)OC(=O)N1 [Compound 126] ?
OUT: 0.1 to 0.5 µM

IN: Try the compound C[C@H]1CC/C=C/c2cc(ccn2)Nc2cc(n[nH]2)[C@H]2CC[C@H](C2)OC(=O)N1 [Compound 125]
OUT: 0.1 to 0.5 µM

IN: What do we get for C[C@@H]1CCC#Cc2cc(ccn2)Nc2cc(n[nH]2)[C@H]2CC[C@H](C2)OC(=O)N1 [Compound 137] ?
OUT: 0.1 to 0.5 µM

----------
# Target: CDK4-CYCLIN D1 (Homo sapiens)
# Protocol summary: CDK protein kinase inhibition by ADP-Glo assay, CDK4-CYCLIN D1
# Assay type: biochemical
# Experimental setup: Table 38; fold selectivity for CDK2 over CDK4, recombinant CDK kinases
Reported endpoint: CDK2 Fold selectivity against CDK4

Study these solved cases before continuing.
IN: Need CDK2 Fold selectivity against CDK4, item C[C@H]1CC(F)(F)COc2cc(ccn2)Nc2[nH]nc(c2F)[C@H]2CC[C@H](C2)OC(=O)N1
OUT: B (B, >100 and ≤500)

IN: Now consider O=C1NC2CC(COc3cc(ccn3)Nc3cc(n[nH]3)C3C[C@H](F)[C@@H](C3)O1)C2 .
OUT: E (E, <20)

IN: Now the same for O=C1NC2CC(COc3cc(ccn3)Nc3[nH]nc(c3F)C3C[C@H](F)[C@@H](C3)O1)C2
OUT: E (E, <20)

IN: Same lookup for O=C1NC2CC(COc3cc(ccn3)Nc3cc(n[nH]3)C3C[C@@H](F)[C@H](C3)O1)C2 , please.
OUT: E (E, <20)

As a next step, examine the molecule that follows.
IN: Record request: CDK2 Fold selectivity against CDK4 value, item O=C1NC2CC(COc3cc(ccn3)Nc3[nH]nc(c3F)C3C[C@@H](F)[C@H](C3)O1)C2
OUT: B (B, >100 and ≤500)
